# ASSAY COMMENT: Compound solubility in water
# Assay type: physicochemical
# CONDITIONS USED: in water
MEASURED ENDPOINT: log10(solubility) (log10 of the value in µg/mL)
Recall that a logarithmic scale is used here: each number is log10 of solubility in µg/mL.

Known log10(solubility) results, listed for orientation:
>>> meas_value("COc1ccc(F)cc1-c1cc(C)n2cnc(C(=O)NC(C3CC3)C(F)(F)F)c2n1 (centres unmarked) [IV-71]")
0.18
>>> meas_value("CCCCO[C@H]1C[C@H]2CC[C@@H](C1)[C@H]2NC(=O)c1ncn2c(C)cc(COC)nc12 [IV-4]")
1.21
>>> meas_value("CCc1cc(N2CCN(C(C)C)C2=O)nc2c(C(=O)NC(C3CC3)C(F)(F)F)ncn12 (centres unmarked) [IV-16]")
1.39
>>> meas_value("Cc1cc(-c2ccc(F)cc2)nc2c(C(=O)N[C@@H](C3CC3)C(F)(F)F)ncn12 [IV-46]")
-0.10
>>> meas_value("Cc1sc(C#N)cc1-c1cc(C)n2cnc(C(=O)NC(C3CC3)C(F)(F)F)c2n1 (centres unmarked) [IV-95]")
0.40
>>> meas_value("Cc1cc(-c2ccns2)nc2c(C(=O)N[C@@H](C3CC3)C(F)(F)F)ncn12 [IV-8]")
1.29
>>> meas_value("Cc1cc(-c2ccc3scnc3c2)nc2c(C(=O)NC(C3CC3)C(F)(F)F)ncn12 (centres unmarked) [IV-49]")
-0.22
>>> meas_value("C#CC(C)(C)NC(=O)c1ncn2c(C)cc(-c3cccc4nccn34)nc12 [IV-24]")
0.40
>>> meas_value("Cc1cc(-c2cnsc2)nc2c(C(=O)NC(C3CC3)C(F)(F)F)ncn12 (centres unmarked) [IV-51]")
0.32
>>> meas_value("Cc1cc(Oc2ccncc2)nc2c(C(=O)N[C@@H](C)C3CC3)ncn12 [IV-115]")
1.47

For every item in the list below, what is its measured log10(solubility)?
1. COc1cc(F)cc(-c2cc(C)n3cnc(C(=O)NC(C)C(F)(F)F)c3n2)c1 (centres unmarked) [IV-57]
2. C#CC(NC(=O)c1ncn2c(C)cc(-c3ccccc3C#N)nc12)C(F)(F)F (centres unmarked) [IV-23]
3. Cc1cc(-c2cc(F)ccc2C#N)nc2c(C(=O)NC(C3CC3)C(F)(F)F)ncn12 (centres unmarked) [IV-108]
4. Cc1cc(-c2ccc3ocnc3c2)nc2c(C(=O)NC(C3CC3)C(F)(F)F)ncn12 (centres unmarked) [IV-72]
5. COc1cccc(-c2cc(C)n3cnc(C(=O)NC(C4CC4)C(F)(F)F)c3n2)n1 (centres unmarked) [IV-91]
6. Cc1cc(N2CCCN(C(C)C)C2=O)nc2c(C(=O)NC(C3CC3)C(F)(F)F)ncn12 (centres unmarked) [IV-89]
7. Cc1cc(Oc2cccnc2)nc2c(C(=O)N[C@@H](C)C3CC3)ncn12 [IV-114]

0.08
-0.22
-0.15
0.04
0.15
1.41
1.52

Could I get log10(solubility) for every one of these entries?
1. Cc1cc(-c2ccc(C#N)s2)nc2c(C(=O)NC(C3CC3)C(F)(F)F)ncn12 (centres unmarked) [IV-86]
2. COc1ccc(F)c(-c2cc(C)n3cnc(C(=O)NC(C)C(F)(F)F)c3n2)c1 (centres unmarked) [IV-104]
3. Cc1cc(-c2ccc(F)cc2C#N)nc2c(C(=O)NC(C3CC3)C(F)(F)F)ncn12 (centres unmarked) [IV-80]
4. Cc1cc(-c2cccc(OC(F)(F)F)n2)nc2c(C(=O)N[C@@H](C)C3CC3)ncn12 [IV-101]
5. Cc1cc(-c2cccc3ncoc23)nc2c(C(=O)N[C@@H](C3CC3)C(F)(F)F)ncn12 [IV-18]
6. Cc1cc(-c2cccc(C#N)n2)nc2c(C(=O)NC(C3CC3)C(F)(F)F)ncn12 (centres unmarked) [IV-39]
7. Cc1cc(N2CCCC(F)(F)C2)nc2c(C(=O)NC(C3CC3)C(F)(F)F)ncn12 (centres unmarked) [IV-113]
8. Cc1cc(-c2ccccc2C#N)nc2c(C(=O)NC(C)(C)C)ncn12 [IV-109]

0.56
-0.15
0.57
0.18
-0.40
-0.52
1.24
0.40

Give me log10(solubility) for each of these compounds, listed below.
1. Cc1cc(-c2ccns2)nc2c(C(=O)N[C@H](C3CC3)C(F)(F)F)ncn12 [IV-7]
2. CCCCO[C@H]1C[C@H]2CC[C@@H](C1)[C@@H]2NC(=O)c1ncn2c(C)cc(COC)nc12 [IV-5]
3. Cc1cc(C)n2cnc(C(=O)N[C@H]3[C@@H]4CC[C@H]3C[C@@H](OC(C)(C)C)C4)c2n1 [IV-10]

1.00
1.39
0.00

I need log10(solubility) for every entry listed below, if you could help.
1. CCCCO[C@H]1C[C@H]2CC[C@@H](C1)[C@@H]2NC(=O)c1ncn2c(COC)cc(C)nc12 [IV-3]
2. Cc1cc(-c2cscc2C#N)nc2c(C(=O)NC(C3CC3)C(F)(F)F)ncn12 (centres unmarked) [IV-32]
3. COc1c(F)cccc1-c1cc(C)n2cnc(C(=O)NC(C3CC3)C(F)(F)F)c2n1 (centres unmarked) [IV-63]
4. Cc1cc(-c2cnsc2)nc2c(C(=O)N[C@@H](C3CC3)C(F)(F)F)ncn12 [IV-53]
5. COc1c(C#N)cccc1-c1cc(C)n2cnc(C(=O)NC(C)C(F)(F)F)c2n1 (centres unmarked) [IV-66]
6. CCCCO[C@H]1C[C@H]2CC[C@@H](C1)[C@H]2NC(=O)c1ncn2c(COC)cc(C)nc12 [IV-2]
7. Cc1cc(-c2ccc3ocnc3c2)nc2c(C(=O)NC(C)C(F)(F)F)ncn12 (centres unmarked) [IV-73]

1. 1.18
2. -0.22
3. 0.49
4. 1.12
5. 1.38
6. 1.44
7. 0.32
